tested on: SW-620 colon; test: NCI-60 one-dose screen, 48 h; settings: 10 µM unless noted
Compounds without any hit were thinned out: in the full panel of roughly 83,000, 20% have a hit. Activity calls are given as the source filed them. How the source made its calls: active means growth percent below 10; inactive means the rest.
Can you answer with just one of these options? label 1 (active), label 0 (inactive)

Record excerpt, results attached:
Returns: the outcome recorded for `CNCc1cccc2c1OCCOCCN(C)C(=O)CN(C)S(=O)(=O)c1ccc(cc1)-c1cnc(N)c(n1)C(=O)N2` in this assay. label 1

Returns: the outcome recorded for `O=C(N=Nc1c(O)[nH]c2ccccc12)Nc1ccc(Cl)cc1` in this assay. label 0

Returns: the outcome recorded for `COc1cc2nc(Nc3cccc(F)c3)nc(Nc3cc(C)[nH]n3)c2cc1OC` in this assay. label 1

Returns: the outcome recorded for `O=C(O)CCCc1cnc2c3sccc3nc(SCc3c(Cl)cccc3Cl)n12` in this assay. label 0

Returns: the outcome recorded for `C#CCn1cnc2c(Nc3cccc(NC(=O)CCl)c3)ncnc21` in this assay. label 0

New cases:
Returns: the outcome recorded for `COc1cc2oc(-c3cccc(NC(=O)c4ccc5c(c4)OCO5)c3)cc(=O)c2c(OC)c1OC` in this assay. label 0

Returns: the outcome recorded for `Nc1ccc([N+](=O)[O-])cc1N=C/C=C/c1ccccc1` in this assay. label 0

Returns: the outcome recorded for `CCOC(=O)/C=C/c1c(C)[nH]c(=O)[nH]c1=O` in this assay. label 0

Returns: the outcome recorded for `CCN(CC)CCNC(=O)c1ccc(-c2nc3ccc4[nH]ncc4c3c3c2CCCC3)cc1` in this assay. label 0

Returns: the outcome recorded for O=c1[nH]cnc2c1C(c1ccc(Br)cc1)c1sc3c(F)cccc3c1O2 (stereo not drawn) in this assay. label 0

Returns: the outcome recorded for CO[C@H](C(=O)[C@@H](O)[C@@H](C)O)[C@@H]1Cc2cc3cc(O[C@H]4C[C@@H](O[C@H]5C[C@@H](O)[C@H](O)C(C)O5)[C@H](O)C(C)O4)c(C)c(O)c3c(O)c2C(=O)[C@H]1O[C@H]1C[C@@H](O[C@H]2C[C@@H](O[C@H]3C[C@@H](OC)[C@H](O)C(C)O3)[C@@H](O)C(C)O2)C(O)(O)C(C)O1 (stereo partly drawn) in this assay. label 0

Returns: the outcome recorded for `O=C(/C=C/c1ccccc1)Nc1ncc(Cc2ccccc2)s1` in this assay. label 0

Returns: the outcome recorded for COc1ccc(C2=Nc3c(N)ncnc3NC(c3cccc(Nc4ccnc5cc(C(F)(F)F)ccc45)c3)C2)cc1 (stereo not drawn) in this assay. label 0

Returns: the outcome recorded for COc1ccc(C2CC(c3ccc4c(c3)OCO4)=Nc3c(N)ncnc3N2)cc1 (stereo not drawn) in this assay. label 0

Returns: the outcome recorded for CCN1C(=O)N(CC)C2C1NN=c1s/c(=C3\C(=O)N(CCc4ccccc4)c4ccccc43)c(=O)n12 (stereo not drawn) in this assay. label 0

Returns: the outcome recorded for COc1cc(C2C3=C(COC3=O)N(CCO)c3cc4c(cc32)OCCO4)cc(OC)c1OC (stereo not drawn) in this assay. label 0

Returns: the outcome recorded for `O=C1CCCc2nc3sc4c(=O)n(-c5ccccc5Cl)nnc4c3cc21` in this assay. label 0

Returns: the outcome recorded for CN(Cc1cnc2nc(N)nc(N)c2n1)c1c(Cl)cc(C(=O)NC(CCC(=O)O)C(=O)O)cc1Cl (stereo not drawn) in this assay. label 0
